Target: T1, Human KLRG1 (human, UniProt Q96E93 1-195)
T1 construct: also called hKLRG1
T1 sequence: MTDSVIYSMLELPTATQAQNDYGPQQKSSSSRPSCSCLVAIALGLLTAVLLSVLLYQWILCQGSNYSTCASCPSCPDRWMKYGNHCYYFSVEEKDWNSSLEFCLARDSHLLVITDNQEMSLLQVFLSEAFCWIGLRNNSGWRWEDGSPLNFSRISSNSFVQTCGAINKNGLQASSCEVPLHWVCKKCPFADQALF
Test: flow, Jurkat, 100 nM Ab
assayEndpoint: MFI normalized to WT
Please state the value as a number alone, without comment.

Provide MFI normalized to WT value for the following binder: KW7.3.7 (antibody, V domains shown) VH: EVQLVESGGGLVQPGGSLRLSCAASGFTFSSYAMSWVRQAPGKGLEWVSATSGSGGSTYYADSAKGRFTISRDNSKNTLYLQMNSLRAEDTAVYYCARGGYLPDAFDYWGRGTLVTVSS VL: DIQMTQSPSSLSASVGDRVTITCWASQSISSYLNWYQQEPGKAPKLLIYAASSLQSGVPSRFSGSGSGTDFTLTISSLQPEDFATYYCQQTYSTPLTFGQGTKVEIK
1.06
